Source: PubChem BioAssay (NCI)

Test system: RPMI-8226 leukemia
Assay: NCI-60 one-dose screen, 48 h
Settings: 10 µM unless noted
About 83,000 compounds went through this panel and 20% of them were active in at least one assay; those are over-represented in the sample as a whole. Activity calls are given as the source filed them. How the source made its calls: active means growth percent below 10; inactive means the rest.
Outcomes: 1.0 for active, 0.0 for inactive

• Fc1ccc(Nc2nc3nonc3nc2Nc2ccc(F)cc2)cc1 = 1.0
• CSc1nc(N)c(CNC(C)c2ccccc2)c(=O)n1C (centres undefined) = 0.0
• Cc1ccc(O)c(C(=O)c2ccccc2Cl)c1 = 0.0
• Cc1cnc(Nc2ccc(N3CCN(C)CC3)cc2)nc1Nc1ccc(Cl)c(NS(=O)(=O)C(C)(C)C)c1 = 1.0
• C=C1C(=O)O[C@H]2[C@H]1CC/C(Cn1cc(CNCCc3c[nH]c4ccc(Cl)cc34)nn1)=C\CC[C@@]1(C)O[C@@H]21 = 1.0
• C=C(C)[C@@H]1CC[C@@]2(C(=O)O)CC[C@]3(C)C(CCC4[C@@]5(C)CCC(OS(=O)(=O)c6ccccc6)C(C)(C)C5CC[C@]43C)C12 (some centres undefined) = 0.0
• CN(C)c1ccc2cc(-c3ccccc3F)c(N)nc2c1 = 0.0
• CCO/C=N/C1=C(C#N)C(c2ccc(OC)cc2)c2c(c3ccccc3n(C)c2=O)O1 (centres undefined) = 0.0
• O=c1[nH]nc(-c2ccc(Cl)cc2)cc1Cc1ccccc1 = 0.0
• Nc1ccc(CCCCc2ccccc2)c(Cl)c1 = 0.0
• C=C(C)[C@@H]1CC[C@]2(CNCCO)CC[C@]3(C)[C@H](CC[C@@H]4[C@@]5(C)CCC(N)[C@@](C)(CO)[C@@H]5CC[C@]43C)[C@@H]12 (some centres undefined) = 1.0
• C(=C\c1nc2ccccc2[nH]1)/c1nc2ccccc2[nH]1 = 0.0
• CCN(CC)CC(O)CNc1c2ccc(Cl)cc2nc2ccc(OC)cc12 (centres undefined) = 1.0
• COc1ccc(CN2C(=O)/C(=C\c3cc(OC)c(OC)c(OC)c3)c3ccccc32)cc1 = 1.0
• Cc1cc(C(c2ccccc2)c2ccccc2)ccc1NS(=O)(=O)c1ccccc1 = 0.0
• C=C(CNCCc1ccc(O)cc1)[C@@H]1CC[C@]2(COC3CCCCO3)CC[C@]3(C)[C@H](CC[C@@H]4[C@@]5(C)CCC(N)C(C)(C)[C@@H]5CC[C@]43C)[C@@H]12 (some centres undefined) = 1.0
• COC(=O)CCCNC(=O)C(=O)c1c(O)c(O)c(C(C)C)c2cc(C)c(-c3c(C)cc4c(C(C)C)c(O)c(O)c(C(=O)C(=O)NCCCC(=O)OC)c4c3O)c(O)c12 = 0.0
• O=C1C2=C(CCN(Cc3ccccc3)C2)N2CCN=C2N1Cc1ccc(F)cc1F = 0.0
• Cc1nc(C)c(-c2nn3c(-c4cccc(F)c4)nnc3s2)s1 = 0.0

###

System: UACC-257 melanoma
Experiment: NCI-60 one-dose screen, 48 h
Conditions: 10 µM unless noted
Compounds without any hit were thinned out: in the full panel of roughly 83,000, 20% have a hit. Active and inactive are the calls of the source. The calls were made as follows: active = growth percent below 10; inactive = the rest.
Possible outcomes: label 1 for active, label 0 for inactive

• NC(=S)N/N=C/C(=O)O = label 0
• CN(C)c1cnccn1 = label 0
• O=C1c2ccccc2C2(c3ccc(O)cc3)c3ccccc3Oc3cccc1c32 (stereo unspecified) = label 0
• COc1ccc(OC)c(Nc2nc3nonc3nc2Nc2cc(OC)ccc2OC)c1 = label 0
• O=C(CC12CC3CC(CC(C3)C1)C2)NCCOCCOCCNC(=O)c1cc2c(o1)C(=O)c1ccccc1C2=O = label 1
• Cc1ccc(S(=O)(=O)NN/C(N)=N\S(=O)(=O)c2cc(C)c(Cl)cc2SCc2ccccc2)cc1 = label 0
• O=C1CSC(c2ccccc2)N1c1ccccc1 (stereo unspecified) = label 0
• CCc1cc(Cc2cc(CC)cc(C(C)(C)C)c2O)c(O)c(C(C)(C)C)c1 = label 0
• O=C(C[C@@]1(O)C(=O)Nc2c(Cl)ccc(Cl)c21)c1ccc(C2CC2)cc1 = label 0
• COc1ccc(/C=C2\COc3ccc(O)c(O)c3C2=O)c(OC)c1 = label 0
• COc1ccc(C2=NC(=O)NC2c2ccc(OC)cc2)cc1 (stereo unspecified) = label 0
• C[C@@H]1C(=O)N(C[C@H](Cc2ccccc2)N(Cc2ccccc2)Cc2ccccc2)[C@]1(Cc1ccccc1)C(=O)OC(C)(C)C = label 0
• C/C(Cc1ccc(Cl)cc1)=C(/c1ccc(Cl)cc1)c1ccc(OCCN(C)C)cc1 = label 0
• COc1ccc(/C(C)=C(\c2ccc(Cl)cc2)c2ccc(OCCCN(C)C)cc2)cc1F = label 0
• Fc1ccc(Nc2nc(Nc3ccc(-c4nc5ccccc5[nH]4)cc3)c3cn[nH]c3n2)cc1 = label 0
• CC[C@@H](C[C@H](CCO)c1ccccc1)c1cc2ccccc2o1 = label 0
• CCOC(=O)c1c(C)[nH]c(C(=O)CCC(=O)OC)c1C = label 0
• O=[N+]([O-])c1ccc(-c2cc3c(Nc4ccc(Cl)c(C(F)(F)F)c4)ncnc3s2)cc1 = label 1
• CN1CCN(C(=O)[C@@]2(C)CC[C@]3(C)CC[C@]4(C)C(=CC[C@@H]5[C@@]6(C)C/C(=C/c7ccncc7)C(=O)C(C)(C)[C@@H]6CC[C@]54C)[C@@H]3C2)CC1 = label 0
• Clc1ccc2c(NCCCN3CCN(c4nc(-n5ccnc5)nc5ccccc45)CC3)ccnc2c1 = label 0
• Cc1ccc(O)c(C(=O)c2ccccc2Cl)c1 = label 0
